Assay: HTRF signal interference by compounds, confirmation, artefact control for SUMOylation inhibitor project, biochemical, uHTS (AID 2069)
Settings: HTRF interference counterscreen, fluorescence, at 35 µM, active compounds read high
The whole screen tested about 1,200 compounds, of which about 210 (18%) were called active. These entries were drawn from the full list.
inhibition: recorded values

| molecule | result |
| --- | --- |
| COc1ccc(-c2nc(SCC(=O)Nc3cc(C)on3)n[nH]2)cc1 | 22.4% (inactive) |
| COc1ccc(C=Nc2cccc3ncccc23)cc1 | -4.65% (inactive) |
| Cc1ccc2nsnc2c1NC(=O)c1ccc(-c2cc(Cl)ccc2Cl)o1 | 20.6% (inactive) |
| Oc1cccc(C=Nc2cccc3ccccc23)c1O | 8.55% (inactive) |

// inhibition lookup, key: CCOC(=O)c1nn(-c2ccc3c(c2)CCN3C(C)=O)cc1O
48.8% (active)

Would you mind doing O=C1/C(=C/c2coc3ccc(O)cc3c2=O)SC(=S)N1c1ccccc1 as well?
4.9% (inactive)

Would you mind doing CC(C)CNC1=CC(=O)CC(c2ccco2)C1 (stereo not given) as well?
-0.9% (inactive)

---

Experiment: HTRF signal interference by compounds, confirmation, artefact control for SUMOylation inhibitor project, biochemical, uHTS (AID 2069)
Details: HTRF interference counterscreen, fluorescence, at 35 µM, active compounds read high
Screen size: about 1,200 compounds; about 210 (18%) were called active. Not all results are given here.
inhibition: recorded values
Answer with a number only, understood to be in %.

| molecule | unitSpec | quantitativeResult |
| --- | --- | --- |
| O=C(N/N=C/c1ccc([N+](=O)[O-])o1)c1cc2c(ccc3ccccc32)o1 | % | 20.9 |
| O=C(Nc1nnc(-c2ccccc2SCc2ccccc2F)s1)Nc1ccccc1F | % | 0.75 |
| CCN(Cc1cc(=O)n2ccsc2n1)c1cccc2ccccc12 | % | 1.45 |
| CCOC(=O)Cn1c2ccccc2c2nc3ccccc3nc21 | % | 25.7 |
| N#Cc1c(N)n(CCOC(=O)c2ccc(Cl)cc2)c2nc3ccccc3nc12 | % | 10.8 |

// inhibition lookup, key: CCC(=O)OCCNc1cc(Sc2nccn2C)c2nonc2c1[N+](=O)[O-]
8.05

Would you mind doing Cc1ccc(-c2[nH]c(-c3ccc(C(=O)O)cc3)nc2-c2ccccc2)cc1 as well?
43.1

Would you mind doing COCCn1c(N)c(C(=O)NCC2CCCO2)c2nc3ccccc3nc21 (configuration not stated) as well?
42.4

Would you mind doing COC(=O)/C(=C\Nc1ccc(Cl)cc1Cl)NC(=O)c1ccc(OC)cc1 as well?
0.3

Would you mind doing O=c1oc(-c2cccs2)nc2sc3c(c12)CCC3 as well?
40.5

Would you mind doing CCOc1cc(CNc2ccccc2SC)ccc1O as well?
-6.3

Would you mind doing O=C(O)c1ccc(C(=O)Nc2cccc3ccccc23)c(C(=O)O)c1 as well?
4.4

Would you mind doing O=[N+]([O-])c1cccc(C=Nc2cccc3ccccc23)c1O as well?
29.6

Would you mind doing O=C1C2C3C=CC(C4CC34)C2C(=O)N1CCc1ccccc1 (configuration not stated) as well?
8.65

Would you mind doing O=C(NC(=S)Nc1cccc2c(O)cccc12)c1ccco1 as well?
-6.9

Would you mind doing Cc1ccc(-n2c(-c3cc(-c4ccco4)[nH]n3)n[nH]c2=S)c(Br)c1 as well?
16.4

Would you mind doing O=C(N/N=C/c1ccc(Cl)cc1)c1nc2ccc([N+](=O)[O-])cc2c(=O)[nH]1 as well?
8.95
